The measurements presented in this section are drawn from PubChem BioAssay.

biological target: Calmodulin-1 (Homo sapiens); experiment: CALM1 binders on microarrays, EGTA buffer, profiling panel, biochemical, small-molecule microarray, Cy5-labelled CALM1 (AID 1111); details: Cy5-CALM1 binding fluorescence, higher = more signal;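 note: labelled calmodulin applied in Tris saline Tween buffer holding calcium plus EGTA and DTT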
quantity.kind: composite z-score

molecule	measured
NC(=O)N1C(=O)C2C(C1=O)C1C=C(c3ccc(CO)cc3)C2C(C2CC2)N1Cc1cc2c(cc1Br)OCO2 (centres undefined)	0.438
C=CCNC(=O)[C@@H]1[C@H]2C(=O)O[C@H](c3ccccc3)[C@H](c3ccccc3)N2[C@H](c2ccc(O)cc2)[C@@]12C(=O)N(C(=O)OCCOC)c1ccc(C#Cc3ccc(OC)cc3)cc12	1.75
O=C1O[C@@H](c2ccccc2)[C@@H](c2ccccc2)N2[C@@H](c3ccc(OCCO)cc3)[C@]3(C(=O)Nc4ccc(C#CC5(O)CCCCCC5)cc43)[C@@H](C(=O)NC[C@H](O)c3ccccc3)[C@H]12	1.97
C=C(C(=O)CC[C@@H](OC(C)=O)c1ccccc1OCCO)C(C)C	-0.942
[N-]=[N+]=Nc1ccccc1[C@H]1OC(c2ccc(OCCCO)cc2)=N[C@@]1(Cc1ccccc1)C(N)=O	2.26
Cc1ccc(N2C(=O)c3ccccc3[C@](C)(C(=O)NCC(F)(F)F)[C@@H]2c2ccc(CO)cc2)nc1	-0.538
C=CCC(OC(C)=O)[C@@H]1[C@@H](N(Cc2ccc(-c3ccccc3)cc2)C(=O)c2ccc(-c3ccccc3)cc2)c2cc(OCCCO)ccc2N1C(=O)c1ccc(-c2ccccc2)cc1 (some centres undefined)	0.681
C=C(C(=O)CC[C@H](OC(C)=O)c1ccc(CO)o1)C(C)C	-0.579
C=CCN1C(=O)[C@]2(O[C@H](CCn3cc([C@H](O)c4ccccc4)nn3)[C@@H]([Si](C)(C)c3ccc(OC)cc3)[C@@H]2C)c2cc(N3CCOC3=O)ccc21	-0.169
CC(=O)OC(C/C=C\B1OC(C)(C)C(C)(C)O1)c1ccccc1 (centres undefined)	-1.33
CCOC(=O)C[C@H]1[C@H](OC(=O)c2ccc(C(=O)c3ccccc3)cc2)[C@@H](NC(=O)Cc2ccc(OC)cc2)c2cc(OCCCO)ccc2N1C(=O)Cc1ccc(OC)cc1	1.31
C=C(COC)/C(=C/C[C@H](OC(C)=O)c1ccc(CO)o1)c1cnc2ccccc2c1	0.143
COC(=O)C(CC#Cc1ccc2c(c1)[C@]1(C(=O)N2)[C@H](C(N)=O)[C@H]2C(=O)O[C@H](c3ccccc3)[C@H](c3ccccc3)N2[C@@H]1c1ccc(O)cc1)C(=O)OC	-0.351
COCCOC(=O)N1C(=O)[C@@]2(c3cc(C#CC4(O)CCCCCC4)ccc31)[C@H](C(=O)NC[C@H](O)c1ccccc1)[C@H]1C(=O)O[C@H](c3ccccc3)[C@H](c3ccccc3)N1[C@@H]2c1ccccc1OCCO	1.18
